Test system: HL-60(TB) leukemia
protocol_summary: NCI tumour cell line growth inhibition, 48 h
assay_readout: TGI

> print(dat)
                            compound.string  assay.readout   reading
1  CCOCCOC[C@H]1CCCN(c2ccnc3sc(C(N)=O)c(N)c23)C1            TGI  > 100 µM
2  O=C1C=C2CC[C@H]3[C@@H]4CC[C@H](OC(=O)c5cccc6cc7ccccc7nc56)[C@H]4CC[C@@H]3[C@H]2CC1            TGI  > 100 µM
3       CCOC(=O)c1cc(Br)c(-c2onc(C)c2Br)n1C            TGI   27.5 µM

Lab note: next molecule to report on.
# input Consider the molecule `C[N+](C)(CCO)CCN1c2ccccc2Sc2ccccc21` and give its recorded TGI.
# output > 10 µM

* * *

// values below are reported TGI
Test system: LXFL 529 NSCLC
protocol_summary: NCI tumour cell line growth inhibition, 48 h

> print(dat)
                                   compound  assay.readout   reading
1  FC(F)(F)c1cccc(C2SCc3nc4ccccc4n32)c1 (stereo not drawn)            TGI  > 100 µM
2  CC1=Nc2ccccc2C12C(c1ccccc1)C(c1ccccc1)C(=O)N1c3ccccc3CC12 (stereo not drawn)            TGI  > 100 µM

From here, focus on the item given below.
# input Given the compound COC(=O)C1=C(C)N(NC(N)=O)C(C)(O)C12CCOC2=O (stereo not drawn) , write its reported TGI.
# output > 100 µM

* * *

# reported GI50; entries follow
System: NCI-H23 lung
protocol_summary: NCI tumour cell line growth inhibition, 48 h

compound	assay_readout	reading
Nc1nc(-c2ccccc2)cc(-c2ccc(Cl)cc2)c1-c1nc2ccccc2o1	GI50	23.5 µM
COC(C)(C)[C@H](O)C(O)CC(C)[C@@H]1CCC23CC12CCC1[C@@]2(C)CCC(OC(C)=O)C(C)(C)C2CC(OC2OC(COC(C)=O)C(O)C(O)C2O)[C@]13C (stereo partly drawn)	GI50	11.3 µM

# input Return GI50 (reported value) for this compound: CC(CN)[C@@H]1CC[C@]2(CO)CC[C@]3(C)[C@H](CC[C@@H]4[C@@]5(C)CCC(N)C(C)(C)[C@@H]5CC[C@]43C)[C@@H]12 (stereo partly drawn)
# output 1.85 µM

* * *

Test system: HCC-2998 colon
protocol_summary: NCI tumour cell line growth inhibition, 48 h
assay_readout: TGI

compound	reading
COc1cccc(C2c3cc4c(cc3OC(N3CCCCC3)C2C)OCO4)c1OC (stereo unspecified)	33 µM
CCOC(=O)NC1CC2CCC1(OC)C=C2C (stereo unspecified)	> 100 µM
CCOCCOC[C@H]1CCCN(c2ccnc3sc(C(N)=O)c(N)c23)C1	> 100 µM
CCCCCCCCCCCCCCCCCC[N+](C)(C)Cc1ccc(C[N+](C)(C)CCCCCCCCCCCCCCCCCC)cc1	93.7 µM
COC(=O)C(=O)C(C(=O)OC)C(=O)C(=O)Nc1cc(Cl)c(Cl)cc1Cl (stereo unspecified)	> 100 µM
O=c1/c(=C/c2ccc([N+](=O)[O-])o2)sc2n1[C@@H](c1ccc3c(c1)OCO3)C=C(c1cc(F)c(Cl)cc1Cl)N=2	28.7 µM
C[C@]12CCC(=O)C=C1CC[C@@H]1[C@@H]2[C@@H](O)C[C@@]2(C)[C@H]1CC[C@]2(O)C(=O)COC(=O)C1CCCC1	> 100 µM
O=[N+]([O-])c1cc2c(c([N+](=O)[O-])c1)Nc1ccccc1O2	> 100 µM
COC(C)(C)[C@H](O)C(O)CC(C)[C@@H]1CCC23CC12CCC1[C@@]2(C)CCC(OC(C)=O)C(C)(C)C2CC(OC2OC(COC(C)=O)C(O)C(O)C2O)[C@]13C (stereo partly specified)	4.94 µM
O=S(=O)(O)C(Cc1nc2ccccc2[nH]1)S(=O)(=O)OCCC1S(=O)(=O)OCCOS1(=O)=O (stereo unspecified)	> 100 µM

Next compound, TGI to be filled in.
# input Give TGI for this entry on HCC-2998 colon: `O=C(Cc1ccccc1)NS(=O)(=O)c1ccccc1`
# output > 100 µM

* * *

Each entry below lists one item and its recorded TGI value.
Tested on: OVCAR-4 ovarian
protocol_summary: NCI tumour cell line growth inhibition, 48 h

> print(dat)
                                   compound  experimental.system  assay.readout   reading
1            COc1cccc(Nc2nc(N)nc(N)c2N=O)c1      OVCAR-4 ovarian            TGI   78.5 µM
2  CCCCCC/C=C1\CCC(CN(C)C)C1=O (centres undefined)      OVCAR-4 ovarian            TGI   45.3 µM
3   COC(=O)Cc1cc(=O)n2c([nH]c3ccccc32)c1C#N      OVCAR-4 ovarian            TGI  > 100 µM
4           c1cc(C[S+]2CCCC2)sc1C[S+]1CCCC1      OVCAR-4 ovarian            TGI  > 100 µM
5  Nc1ccc(-c2ccc(-c3nc4cc(Cl)c(Cl)cc4[nH]3)cc2)cc1      OVCAR-4 ovarian            TGI  > 100 µM

# input Look up TGI of `c1ccc2c(CNCCCCCCCCCCCCNCc3cccc4ccccc34)cccc2c1` and report it.
# output 3.05 µM

* * *

Test system: HS 578T breast
protocol_summary: NCI tumour cell line growth inhibition, 48 h
assay_readout: TGI

> print(dat)
                                   molecule   reading
1       COC(=O)c1ccc(NCC2=CC(=O)C=CC2=O)cc1  > 100 µM
2                 Fc1ccc2c3c([nH]c2c1)CCNC3  > 100 µM
3  C[C@@H]1OCC2(CCN(c3cnc(Sc4ccnc(N)c4Cl)c(N)n3)CC2)[C@@H]1N  > 100 µM
4  Cn1c(=O)c2[nH]c(CCCCc3nc4c([nH]3)c(=O)n(C)c(=S)n4C)nc2n(C)c1=S  > 100 µM

Please look at the following molecule next.
# input Output measured TGI for this item: `COc1cc2c(cc1OC)-c1cc3ccc(OC)c(OC)c3c[n+]1CC2`
# output > 100 µM

* * *

Listing of entries alongside the reported GI50.
System: 786-0 renal
protocol_summary: NCI tumour cell line growth inhibition, 48 h

Below are worked cases with known answers.
> print(dat)
                                   compound  reading
1  COc1ccc2c(c1)C(=O)c1c-2c(NCCN(C)C)nc2ccccc12  2650 nM
2  COc1cc(C)c(NC(=O)CN(C)C)cc1Nc1nc(Nc2cccc(F)c2C(N)=O)c2cc[nH]c2n1  4150 nM

# input Return the recorded GI50 value; entry: Nc1c2ccccc2nc2ccccc12 (tested in a mixture with another compound)
# output 2450 nM

* * *

Documented TGI across a set of molecules
Tested on: SF-539 CNS
protocol_summary: NCI tumour cell line growth inhibition, 48 h

These recorded examples may help you get a feel for the data.
> print(dat)
                            compound.string   reading
1  CCN(CC)CC[n+]1cc2cc(OC)c(OC)cc2c2ccc3cc4c(cc3c21)OCO4   3.16 µM
2  COc1cc2c(cc1OC)-c1cc3ccc(OC)c(OC)c3c[n+]1CC2  > 100 µM

Kindly consider the entry below.
# input Kindly indicate its recorded TGI. Item: `CCc1ccccc1NC(=O)C(=O)CC(=O)c1sc(Nc2ccccc2Cl)nc1C`
# output 66.1 µM

* * *

System: HOP-18 NSCLC
protocol_summary: NCI tumour cell line growth inhibition, 48 h
assay_readout: TGI

# example entries with known answers
> print(dat)
                                   compound  assay.readout   reading
1  COc1ccc(C2S/C(=C\c3ccccc3)C(=O)N2NC(=O)Cc2ccccc2)cc1 (stereo unspecified)            TGI  > 100 µM
2  COC(=O)[C@@]12C=CC(=O)[C@H]3C[C@@H](C(C(C)C)C1)[C@]32OC (stereo partly specified)            TGI  > 100 µM
3  CC[CH2][Sn]([CH2]CC)([O]C(=O)Cc1ccc(F)cc1)[O][Sn]([CH2]CC)([CH2]CC)[O]C(=O)Cc1ccc(F)cc1            TGI  0.828 µM

# input Name the value of TGI reported for `COC(=O)N/N=C(/Cc1occc(=O)c1O)C(=O)Nc1ccc([N+](=O)[O-])cc1[N+](=O)[O-]` when tested on HOP-18 NSCLC.
# output > 100 µM

# input Give TGI for this entry on HOP-18 NSCLC: CCCCCC/C=C1\CCC(CN(C)C)C1=O (stereo unspecified)
# output 28.8 µM

# input Quote HOP-18 NSCLC TGI for entry C/C(=N/NC(N)=S)C(CN(C)C)C(C1=C(O)c2ccccc2OC1)c1ccccc1 (stereo unspecified) .
# output > 100 µM
